Taken from paper PMC10459693.

assay: Biodistribution in SCID mice bearing AsPC-1 xenografts; assay type: in vivo; details: male, mouse, blood, iv, 3 pmol, total radioactivity, 4 h pi, all animal groups, read-out: radioactivity levels in the blood
Peptide text beside a SMILES is read from it. * marks the point of attachment. Palmitoyl = CCCCCCCCCCCCCCCC(=O)*; X1 = NCCNCC(CNCCN)C(=O)*
Parameter: tissue uptake at 4 h

Problem: Any idea what its tissue uptake at 4 h is? The compound is CCCCCCCCCCCCCCCC(=O)NCCCC[C@H](NC(=O)C(CNCCN)CNCCN)C(=O)N[C@@H](CCCNC(=N)N)C(=O)N[C@@H](CCCNC(=N)N)C(=O)N1CCC[C@H]1C(=O)N[C@@H](Cc1ccc(O)cc1)C(=O)N[C@H](C(=O)N[C@@H](CC(C)C)C(=O)O)[C@@H](C)CC [[^99mTc]Tc-DT9, metal not drawn] (X1-K(Palmitoyl)RRPYIL-OH)
Result: > 4 %ID/g

----------
test: Biodistribution in SCID mice bearing AsPC-1 xenografts; assay type: in vivo; conditions: male, mouse, lungs, iv, total radioactivity, 24 h pi, Entresto+Lis, read-out: uptake in Lungs
Peptide text beside a SMILES is read from it. * marks the point of attachment. Palmitoyl = CCCCCCCCCCCCCCCC(=O)*; X1 = NCCNCC(CNCCN)C(=O)*
Parameter: tissue uptake at 24 h (%ID/g)
// units = %ID/g; emit number, no label

Problem: Any idea what its tissue uptake at 24 h is? The molecule is CCCCCCCCCCCCCCCC(=O)NCCCC[C@H](NC(=O)C(CNCCN)CNCCN)C(=O)N[C@@H](CCCNC(=N)N)C(=O)N[C@@H](CCCNC(=N)N)C(=O)N1CCC[C@H]1C(=O)N[C@@H](Cc1ccc(O)cc1)C(=O)N[C@H](C(=O)N[C@@H](CC(C)C)C(=O)O)[C@@H](C)CC [[^99mTc]Tc-DT9, metal not drawn] (X1-K(Palmitoyl)RRPYIL-OH)
Result: 3.62

----------
Assay: Biodistribution in SCID mice bearing AsPC-1 xenografts
Type: in vivo
Settings: male, mouse, liver, iv, total radioactivity, 4 h pi, Block (Entresto+Lis plus excess NT), read-out: uptake in Liver
Experimental: Twenty male severe combined immunodeficiency (SCID) mice (23.1 ± 1.6 g body weight, six weeks of age on arrival day; NCSR “Demokritos” Animal House, Athens, Greece) were used in the biodistribution experiments. […] Sample radioactivity was measured on the γ-counter together with proper standards of the injected dose. Results were calculated as percentage of injected activity per gram tissue (%IA/g) and provided as mean %IA/g values ± sd. […]
Peptide text beside a SMILES is read from it. * marks the point of attachment. Palmitoyl = CCCCCCCCCCCCCCCC(=O)*; X1 = NCCNCC(CNCCN)C(=O)*
Parameter: tissue uptake at 4 h (%ID/g)
// units = %ID/g; emit number, no label

Problem: Any idea what its tissue uptake at 4 h is? The molecule is CCCCCCCCCCCCCCCC(=O)NCCCC[C@H](NC(=O)C(CNCCN)CNCCN)C(=O)N[C@@H](CCCNC(=N)N)C(=O)N[C@@H](CCCNC(=N)N)C(=O)N1CCC[C@H]1C(=O)N[C@@H](Cc1ccc(O)cc1)C(=O)N[C@H](C(=O)N[C@@H](CC(C)C)C(=O)O)[C@@H](C)CC [[^99mTc]Tc-DT9, metal not drawn] (X1-K(Palmitoyl)RRPYIL-OH)
Result: 30.9
